Recorded IC50, one value per entry.
# System under test: Aβ (1-42) (Homo sapiens)
# Construct: Required Aβ (1-42) (California Peptide) was dried from its hexafluoroisopropanol (HFIP) stock solution; purchased California Peptide
# Sequence (P05067 672-713 limits assumed): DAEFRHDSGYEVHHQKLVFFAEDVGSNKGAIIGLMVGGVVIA
# Test name: BATYM assay (Aβ (1-42) aggregation, Thioflavin T fluorescence)
# Type: biochemical
# Settings: Aβ 1-42 final concentration 100 μM, 37° C., 1 day, letter = synthetic lot

Molecule	Unit	Comparison operator	IC50
O=C(O)c1cc([N+](=O)[O-])ccc1Nc1ccc(CCc2ccc(Cl)cc2Cl)cc1 [Example 77]	µM	=	9.49
O=C(O)c1ccccc1Nc1ccc(CCCc2ccc(N3CCCCC3)cc2)cc1 [Example 47]	µM	=	38.2
O=C(O)c1ccccc1Nc1ccc(CCc2cc(O)c(O)c(O)c2)cc1 [Example 6]	µM	=	21.5
O=C(O)c1ccc(CCCc2ccc(Nc3ccccc3C(=O)O)cc2)cc1 [Example 49]	µM	>	100
O=C(O)c1ccccc1Nc1ccc(CCc2ccc(F)c(F)c2)cc1 [Example 122]	µM	>	100

====

# System under test: Aβ (1-42) (Homo sapiens)
# Construct: Required Aβ (1-42) (California Peptide) was dried from its hexafluoroisopropanol (HFIP) stock solution; purchased California Peptide
# Test name: BATYM assay (Aβ (1-42) aggregation, Thioflavin T fluorescence)
# Format: biochemical
# Settings: Aβ 1-42 final concentration 100 μM, 37° C., 1 day, letter = synthetic lot

Smiles structure	Unit	Comparison operator	IC50
O=C(O)c1ccccc1Nc1ccc(CCCc2cccc(N3CCCCC3)c2)cc1	µM	=	43.9
CC(=O)Nc1cccc(CCc2ccc(Nc3ccccc3C(=O)O)cc2)c1	µM	>	100
CCCCN(CCCC)c1ccc(CCc2ccc(Nc3ccc([N+](=O)[O-])cc3C(=O)O)cc2)cc1	µM	=	9.14
CN(C)c1cccc(CCCc2ccc(Nc3ccccc3C(=O)O)cc2)c1	µM	=	42.3
O=C(O)c1ccccc1Nc1ccc(CCCc2ccc([N+](=O)[O-])cc2)cc1	µM	=	68.6

====

# System under test: Aβ (1-40) peptide (Homo sapiens, UniProt P05067)
# Construct: 10 μL 0.5 mg/mL Aβ (1-40) peptide in 20% HFIP
# Sequence (P05067 672-711 limits assumed): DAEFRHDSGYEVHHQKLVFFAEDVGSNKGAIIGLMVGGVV
# Test name: BAPA (Beta-Amyloid Peptide Aggregation, pH 6.0, filtration)
# Type: biochemical
# Settings: Aβ (1-40) 33 μM, pH 6.0, 2 to 4 hours at room temperature; replicate values; letter = synthetic lot

Compound	IC50
CCCCN(CCCC)c1cccc(CCc2ccc(Nc3ccccc3C(=O)O)cc2)c1.Cl [Example 38, monohydrochloride]	184 µM
O=C(O)c1ccccc1Nc1ccc(CCc2ccc(O)c(O)c2)cc1 [Example 4]	67 µM
CCN(CC)c1ccc(Nc2ccc(CCc3ccc(Cl)c(Cl)c3)cc2)c(C(=O)O)c1 [Example 151]	108 µM
Nc1ccc(CCc2ccc(Nc3ccccc3C(=O)O)cc2)cc1 [Example 24]	91 µM
CCCCN(CCCC)c1cccc(CCCc2ccc(Nc3ccccc3C(=O)O)cc2)c1 [Example 45]	32 µM

====

# System under test: Aβ(1-40) (Homo sapiens)
# Construct: […]; purchased Bachem, Torrance, Calif
# Test name: BASST (Beta-Amyloid Self-Seeding, Thioflavin T), inhibitors of self-seeded amyloid fibril growth
# Format: biochemical
# Settings: 30 μM soluble Aβ(1-40), 37° C., 3 to 5 hours, thioflavin T fluorescence; replicate values; letter = synthetic lot; read-out: BASST (IC50 = μM)
Measured IC50 by item
Quantity name: IC50 (µM)

Molecule	Quantity name	Endpoint result
Nc1ccc(CCCc2ccc(Nc3ccccc3C(=O)O)cc2)cc1	IC50	9
CCCCN1CCCc2cc(C=C3SC(=S)N(CC(=O)O)C3=O)ccc21	IC50	2
Cc1ccc(CCc2cccc(Nc3ccccc3C(=O)O)c2)cc1C	IC50	10
O=C(NS(=O)(=O)c1ccccc1)c1ccccc1Nc1ccc(CCCc2ccc(Cl)c(Cl)c2)cc1	IC50	2.1
O=C(O)c1ccccc1Nc1ccc(-c2cccc(Br)c2)c(Cl)c1	IC50	10
O=C(O)c1ccccc1Nc1ccc(CCCc2ccc(N3CCCCC3)cc2)cc1	IC50	2
CCCCN(CCCC)c1ccc(Nc2ccc(CCc3ccc(Cl)c(Cl)c3)cc2)c(C(=O)O)c1	IC50	10
CCCN(CCC)c1ccc(CCc2ccc(Nc3ccccc3C(=O)O)cc2)cc1.Cl [Example 25, monohydrochloride]	IC50	4

====

# System under test: Aβ(1-40) (Homo sapiens)
# Construct: […]; purchased Bachem, Torrance, Calif
# Test name: BASSR (Beta-Amyloid Self-Seeding Radioassay), inhibitors of self-seeded amyloid fibril growth
# Format: biochemical
# Settings: 30 μM soluble Aβ(1-40) + 125I-labeled Aβ(1-40), 37° C., 3 to 5 hours; replicate values; letter = synthetic lot; ppt = precipitate; V-shaped = inhibition followed by precipitation
We begin with a simple list: items and their reported IC50.

Smiles structure	IC50
O=C(O)c1ccccc1Nc1ccc(CCc2ccc(F)c(C(F)(F)F)c2)cc1	> 100 µM
O=C(NS(=O)(=O)c1ccccc1)c1ccccc1Nc1ccc(CCCc2ccc(Cl)c(Cl)c2)cc1	> 100 µM
CC(=O)Nc1cccc(CCCc2ccc(Nc3ccccc3C(=O)O)cc2)c1	> 100 µM
Nc1ccc(CCCc2ccc(Nc3ccccc3C(=O)O)cc2)cc1	3 µM
O=C(O)c1ccccc1Nc1cccc(CCCc2ccc(Cl)c(Cl)c2)c1	> 100 µM

====

# System under test: Aβ(1-40) (Homo sapiens, UniProt P05067)
# Construct: […]; purchased Bachem, Torrance, Calif
# Sequence (P05067 672-711 limits assumed): as above
# Test name: BASSR (Beta-Amyloid Self-Seeding Radioassay), inhibitors of self-seeded amyloid fibril growth
# Assay type: biochemical
# Settings: 30 μM soluble Aβ(1-40) + 125I-labeled Aβ(1-40), 37° C., 3 to 5 hours; replicate values; letter = synthetic lot; ppt = precipitate; V-shaped = inhibition followed by precipitation
Consider the following compounds and their measured IC50 readings.

Compound	System under test	IC50
O=C(O)c1ccccc1Nc1ccc(CCc2ccc(N3CC[C@@H]4CCCC[C@H]4C3)cc2)cc1	Aβ(1-40) (Homo sapiens, UniProt P05067)	> 100 µM
O=C(O)c1ccccc1Nc1ccc(CCc2ccccc2)cc1	Aβ(1-40) (Homo sapiens, UniProt P05067)	20 µM
O=C(O)c1ccccc1Nc1ccc(-c2ccc(F)c(F)c2)c(Cl)c1	Aβ(1-40) (Homo sapiens, UniProt P05067)	> 100 µM
Cl.O=C(O)c1ccccc1Nc1ccc(CCc2cccc(N3CCCCC3)c2)cc1 [Example 42, monohydrochloride]	Aβ(1-40) (Homo sapiens, UniProt P05067)	> 100 µM
Cc1ccc(CCc2cccc(Nc3ccccc3C(=O)O)c2)cc1C	Aβ(1-40) (Homo sapiens, UniProt P05067)	> 100 µM
CCCN(CCC)c1ccc(CCc2ccc(Nc3ccccc3C(=O)O)cc2)cc1.Cl [Example 25, monohydrochloride]	Aβ(1-40) (Homo sapiens, UniProt P05067)	> 100 µM
CN(C)c1ccc(N(C)c2ccc(CCc3ccc(Cl)c(Cl)c3)cc2)c(C(=O)O)c1	Aβ(1-40) (Homo sapiens, UniProt P05067)	> 100 µM
Cc1cc(-c2cc(Cl)cc(Cl)c2)ccc1Nc1ccccc1C(=O)O	Aβ(1-40) (Homo sapiens, UniProt P05067)	> 100 µM

====

Compound	melting point
CCCCN1CCCc2cc(C=C3SC(=S)N(CCCC(=O)O)C3=O)ccc21 [Example 58]	152 to 154 °C
O=C(O)c1cc([N+](=O)[O-])ccc1Nc1ccc(CCc2cccc(Cl)c2)cc1 [Example 73]	192.5 to 194.5 °C
O=C(O)c1ccccc1Nc1ccc(CCc2ccc(Cl)cc2Cl)cc1 [Example 130]	181 to 183 °C
CCCCN(CCCC)c1cccc(CCc2ccc(Nc3ccccc3C(=O)O)cc2)c1.Cl [Example 38]	175 to 180 °C
O=C(O)c1ccccc1Nc1ccc(CCCc2ccc(N3CCCC3)cc2)cc1 [Example 53]	171 to 177 °C
CCCN(CCC)c1cccc(CCc2ccc(Nc3ccccc3C(=O)O)cc2)c1.Cl [Example 37]	189 to 193 °C
O=C(O)c1ccccc1Nc1ccc(CCc2cccc(Cl)c2)cc1 [Example 128]	152 to 154 °C
O=C(O)c1ccccc1Nc1ccc(-c2ccc(Cl)c(Cl)c2)cc1 [Example 18]	> 220 °C
O=C(O)c1cccnc1Nc1ccc(CCc2ccc(Cl)c(Cl)c2)cc1 [Example 72]	168 to 171 °C
O=C(O)c1cc([N+](=O)[O-])ccc1Nc1ccc(CCc2ccc(F)c(F)c2)cc1 [Example 67]	203 to 208 °C
CCCCN(CCCC)c1ccc(CCc2ccc(Nc3ccc([N+](=O)[O-])cc3C(=O)O)cc2)cc1 [Example 79]	> 260 °C
Cl.O=C(O)c1ccccc1Nc1ccc(CCc2cccc(N3CCCCC3)c2)cc1 [Example 42]	187 to 193 °C
O=C(O)c1ccccc1Nc1ccc(CCCc2cccc(N3CCCCC3)c2)cc1 [Example 54]	59 to 61 °C
O=C(O)c1ccccc1Nc1ccc(CCCc2ccc(-n3cccc3)cc2)cc1 [Example 46]	131 to 136 °C
O=C(O)c1cc([N+](=O)[O-])ccc1Nc1ccc(CCCc2ccc(Cl)c(Cl)c2)cc1 [Example 15]	153 to 155 °C
O=C(O)c1cc([N+](=O)[O-])ccc1Nc1ccc(CCc2ccccc2Cl)cc1 [Example 76]	236 to 238 °C
O=C(O)c1cc([N+](=O)[O-])ccc1Nc1ccc(CCc2ccc(-c3ccccc3)cc2)cc1 [Example 62]	239 to 244 °C
Nc1ccc(Nc2ccc(CCc3ccc(Cl)c(Cl)c3)cc2)c(C(=O)O)c1 [Example 64]	137 to 142 °C
O=C(O)c1cc([N+](=O)[O-])ccc1Nc1ccc(CCc2ccc(Cl)cc2Cl)cc1 [Example 77]	200.5 to 202.5 °C
CCCCN1CCc2cc(C=C3SC(=S)N(CC(=O)O)C3=O)ccc21 [Example 56]	> 250 °C
O=C(O)c1cc(F)ccc1Nc1ccc(CCCc2ccc(Cl)c(Cl)c2)cc1 [Example 139]	122 to 123 °C
CCCCN1CCCc2cc(C=C3SC(=S)N(CC(=O)O)C3=O)ccc21 [Example 55]	222 to 224 °C
CCN(CC)c1cccc(CCc2ccc(Nc3ccccc3C(=O)O)cc2)c1.Cl [Example 41]	166 to 171 °C
O=C(O)c1ccccc1Nc1ccc(CCc2ccccc2O)cc1 [Example 127]	218 to 219 °C
O=C(O)c1ccc(Nc2ccc(CCc3ccc(Cl)c(Cl)c3)cc2)cc1 [Example 132]	214 to 215 °C
CS(=O)(=O)NC(=O)c1ccccc1Nc1ccc(CCCc2ccc(Cl)c(Cl)c2)cc1 [Example 60]	53 to 61 °C
O=C(O)c1ccccc1Nc1cccc(CCc2ccc(Cl)cc2)c1 [Example 123]	155 to 157 °C
CC(=O)Nc1ccc(CCCc2ccc(Nc3ccccc3C(=O)O)cc2)cc1 [Example 39]	176 to 178 °C
O=C(O)c1cc([N+](=O)[O-])ccc1Nc1ccc(CCc2ccc(Cl)cc2)cc1 [Example 74]	210 to 212 °C
Cc1ccc(CCc2ccc(Nc3ccc([N+](=O)[O-])cc3C(=O)O)cc2)cc1C [Example 16]	214 to 216 °C
Cc1ccc(CCc2cccc(Nc3ccccc3C(=O)O)c2)cc1C [Example 124]	182 to 184 °C
O=C(O)c1ccccc1Nc1ccc(-c2cc(Cl)cc(Cl)c2)cc1 [Example 137]	> 220 °C
O=C(O)c1ccccc1Nc1ccc(CCc2ccc(Oc3ccccc3)cc2)cc1 [Example 134]	153 to 154 °C
CCN(CC)C(=O)c1ccc(CCCc2ccc(Nc3ccccc3C(=O)O)cc2)cc1 [Example 48]	57 to 62 °C
COc1ccc(CCc2ccc(Nc3ccccc3C(=O)O)cc2)c(OC)c1 [Example 125]	180 to 181 °C
